Molecular target: T1, recombinant trimeric protein of human CD70 extracellular region (human CD70 mIgG Fc (knob) / mouse IgG Fc … (human, UniProt P01863 98-330 = IgG part))
T1 construct: The ELISA and Octet texts say only 'recombinant CD70 protein' / 'CM352 antigen'; also called recombinant human CD70 protein; recombinant CD70 protein
T1 chain 1: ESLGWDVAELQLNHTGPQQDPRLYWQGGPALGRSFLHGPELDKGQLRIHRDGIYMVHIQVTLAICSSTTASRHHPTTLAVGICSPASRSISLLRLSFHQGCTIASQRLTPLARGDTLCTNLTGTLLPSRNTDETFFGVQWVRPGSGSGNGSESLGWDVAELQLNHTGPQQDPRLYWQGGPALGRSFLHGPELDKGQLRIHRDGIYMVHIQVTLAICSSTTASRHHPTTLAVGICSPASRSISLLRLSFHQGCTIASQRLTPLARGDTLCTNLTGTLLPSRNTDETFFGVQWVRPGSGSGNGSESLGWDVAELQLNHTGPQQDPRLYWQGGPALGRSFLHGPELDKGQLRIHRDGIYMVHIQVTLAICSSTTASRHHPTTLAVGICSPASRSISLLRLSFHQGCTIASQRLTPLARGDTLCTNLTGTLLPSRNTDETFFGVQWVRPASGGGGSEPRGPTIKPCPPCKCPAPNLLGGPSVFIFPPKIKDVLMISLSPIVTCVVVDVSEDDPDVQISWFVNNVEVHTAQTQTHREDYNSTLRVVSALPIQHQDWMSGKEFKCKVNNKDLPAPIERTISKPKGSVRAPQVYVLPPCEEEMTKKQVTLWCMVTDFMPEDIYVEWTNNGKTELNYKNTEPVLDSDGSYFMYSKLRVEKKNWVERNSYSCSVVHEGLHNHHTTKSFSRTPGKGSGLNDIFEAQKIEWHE
T1 chain 2: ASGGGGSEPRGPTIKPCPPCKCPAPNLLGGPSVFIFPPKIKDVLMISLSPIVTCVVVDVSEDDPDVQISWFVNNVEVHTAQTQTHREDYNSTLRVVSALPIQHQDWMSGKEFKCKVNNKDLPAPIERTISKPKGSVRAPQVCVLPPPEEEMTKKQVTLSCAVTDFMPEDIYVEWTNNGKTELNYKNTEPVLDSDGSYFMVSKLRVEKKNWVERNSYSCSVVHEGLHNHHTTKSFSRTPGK
Assay: ELISA binding, hybridoma supernatant, human CD70
measurement-kind: binding result

# count of solved cases: 4
binder | binding result
4H6-A6 hybridoma antibody (antibody, V domains shown, Mouse antibody in hybridoma culture supernatant) VH: QVQLKQSGPGLVQPSQKLSITCTVSGFSLTTYGVHWIRQSPVKGLEWLGVIWTTGVVDYNAAFISRLNITKDNSKSQIFFKMNSLQTNDTAMYYCARNSYYGNLYVMDYWGQGTSVTVSS VL: DIVLTQSPASLPIFLGQRATISCRASRSVSASGYTFMHWYQQKPGQPPKLLIYLVSNLESGVPARFSGSGSGTDFTLNIHPVEEEDAATYYCQHSREFPLTFGAGTKLELK | binds
1H21-D5 hybridoma antibody (antibody, V domains shown, Mouse antibody in hybridoma culture supernatant) VH: QVQLKQSGPGLVQPSQSLSITCTVSGFSLTSYGIHWVRQSPGKGLEWLGVIWSGGSTDFNAAFISRLSISKDNSKSQVFFKVISLQANDTAIYYCGRNSYYGNLYAMDYWGQGTSVTVSS VL: DIVLTQSPTSLAVSLGQRATISCRASKSVSASGYSFMHWYQQKPGQPPKLLIYLASNLESGVPARFSGSGSGTDFTLNIHPVEEEDAATYYCQHSRELPLTFGAGTKLELK | binds
16J15-H3 hybridoma antibody (antibody, V domains shown, Mouse antibody in hybridoma culture supernatant) VH: QVQLKQSGPGLVQPSQSLSITCTVSNFSLSTYGVHWVRQSPGKGLEWLGVIWGGGYTDYNAAFISRLTISKDNSKSQVFFKMNSLQADDTAIYYCARNNYYGNLYAMDYWGQGTSVTVSS VL: DIVLTQSPASLPVSLGQRATISCRANKSVSASGYSFMHWYQQKPGQPPKLLIYLASNLDSGVPARFSGSGSGTDFTLNIHPVEEEDTATYYCQHSREFPLTFGAGTKLELK | binds
17A9-G5 hybridoma antibody (antibody, V domains shown, Mouse antibody in hybridoma culture supernatant) VH: QVQLKQSGPGLVQPSQSLSITCTVSGFSLTTYGVHWVRQSPGKGLEWLGVIWSAGITDYNAPFISRLSITKDNSKSQVFFKMNSLQADDTAIYYCARNDYYGNLYAMDYWGQGTSVTVSS VL: DIVLTQSPASLAVSLGQRATISCRANKSVSASGYTFMHWYQQKPGQPPKLLIYLVSNLASGVPARFSGSGSGTDFTLNIHPVEGEDAATYYCQHSREFPLTFGAGTKLELK | binds

[Q] Consider the binder 42H19-G4 hybridoma antibody (antibody, V domains shown, Mouse antibody in hybridoma culture supernatant) VH: QVQLKQSGPGPVQPSQSLSITCTVSDFSLTIFGIHWVRQSPGKGLEWLGVIWRDGSTDYNVALMSRLNITKDNSKSQVFFKMNSLQTDDTAIYYCAKNRRYDYAWFPYWGQGTLVSVSA VL: DIVLTQSPASLAVSLGQRATISCRASKSVSASGYSFLHWYQQKPGQPPKLLIYLTSNLESGVPARFSGSGSGTDFTLNIHPVEEEDAATYYCQHSRDFPPTFGAGTKLELK and give its measured binding result.
[A] binds

[Q] Subsequent entry: 10C19-D11 hybridoma antibody (antibody, V domains shown, Mouse antibody in hybridoma culture supernatant) VH: QVQLQQSGPGLVQPSQSLSITCTVSGFSLTTYAVHWFRQSPGQGLEWLGVIWSTGITDFNAAFISRLNINKDSSKSQIFFKMISLQPNDTAIYYCGRNSYYGNLYAMDYWGQGTSVTVSS VL: DIVLTQSPTSLAVSLGQRATISCRASKSVSASGYNFMHWYQQKPGQPPKLLIYLASNLESGVPARFSGSGSETDFTLNIHPVEEGDAATYYCQHSRELPLTFGAGTKLELK
[A] binds

[Q] Could you do the same for 36E7-D6 hybridoma antibody (antibody, V domains shown, Mouse antibody in hybridoma culture supernatant) VH: QVQLKQSGPGLVQPSQSLSITCTVSDFSLTIFGVHWVRQSPGKGLEWLGVIWRDGSTDYNAALMSRLNITKDNSKSQVFFKMNSLQTDDTAIYYCAKNRRYDYAWFPYWGQGTLVSVSA VL: DIVLTQSPASLAVSLGQRATISCRASKSVSASGYSFLHWYQQKPGQPPKLLIYLTSNLESGVPARFSGSGSGTDFTLNIHPVEEEDAATYYCQHSRDFPPTFGAGTKLELK , please?
[A] binds

Measured values drawn from patent US20240247072A1 for this set.
